System: SN12C renal
Assay explanation: NCI-60 one-dose screen, 48 h (100 = growth as untreated, 0 = no growth, -100 = all killed)
Condition details: 10 µM unless noted
This is part of a sample that, as a whole, favours compounds with a hit. Of some 83,000 tested, about 20% had one in any assay.
Value kind: growth (%)
Answers are plain numbers, in %.

Previously resolved entries follow.
molecule=O=C(CNc1c(Cl)cccc1Cl)Nc1ccc(-c2nc3ccccc3s2)cc1 quantity_unit=% reported_measurement=48
molecule="CC(C(=O)n1cc(-c2ccccc2)c(-c2ccccc2)c1)c1ccccc1 (configuration not stated)" quantity_unit=% reported_measurement=108

Take each entry in turn and give its growth.
1. O=C(N/N=C/c1c(Cl)cccc1Cl)c1ccccc1Nc1ccnc(C(F)(F)F)c1
2. COc1cc(OC)c(C(=O)/C=C/c2ccc(C#N)cc2)c(OC)c1
3. CCSc1nnc(Nc2ccc(C(C)C)cc2)s1
4. C#CCN1C(=O)/C(=c2\sc3n(c2=O)C2C(NN=3)N(CC)C(=O)N2CC)c2ccccc21 (configuration not stated)
5. O=C(COc1ccccc1)N1N=C(c2ccc(Cl)cc2)CC1c1c[nH]c2ccccc12 (configuration not stated)
6. COc1cc(-c2cc(/C=C3\CCCCC3=O)[nH]n2)cc(OC)c1OC
7. COc1cc(C(=O)N2CCN(C(=O)c3ccco3)CC2)c(N)cc1OCc1ccccc1
8. CC(=O)Nc1nc(C(=O)N2N=C(C)/C(=C/c3ccccc3)C2=O)cs1

## Result
1. 75.7
2. 19.6
3. 76.7
4. 32.4
5. 62.7
6. 93.8
7. 101
8. 109

Take each entry in turn and give its growth.
1. C=CCn1c(C)nc2ccc(Nc3nc(Nc4ccc(F)cc4)nc4ccccc34)cc21
2. COc1ccc(C(=O)/C=C/c2cc(C(=O)c3cc(OC)c(OC)c(OC)c3)ccc2OC)cc1
3. O=S(=O)(NCCCNc1cc(-c2cn(-c3ccccc3)nc2-c2cccc(O)c2)ccn1)c1cccc(F)c1
4. COC12CC(=O)C(C(C)=O)=C(O)C1(C)c1c(O)c(C)c(O)c(C(C)=O)c1O2 (configuration not stated)
5. Nc1c(C(=O)Nc2ccccc2)sc2nc3c(cc12)CCC3
6. O=C(Nc1ccc(OCc2nnc(-c3ccc(Cl)cc3)o2)c(F)c1)Nc1ccc(Cl)c(Cl)c1
7. CCOC(=O)C1=C(CSC(=S)N(C2CCCCC2)C2CCCCC2)N(C)C(=O)NC1c1ccccc1 (configuration not stated)

## Result
1. 66.2
2. 68.8
3. 65.9
4. 49.1
5. 85
6. 90.9
7. 71.2

Take each entry in turn and give its growth.
1. CCn1cc(C(=O)O)c(=O)c2cc(F)c(N3CCN(S(=O)(=O)c4cccc5ccccc45)CC3)cc21
2. Nc1nc(-c2ccccc2)cs1
3. COc1ccc(/C=C/c2nc(N3CCOCC3)c3cc(F)c(F)cc3n2)cc1OC
4. C=C1C(=O)O[C@H]2[C@H]1CC/C(COC(=O)NCc1cc(OC)cc(OC)c1)=C\CC[C@@]1(C)O[C@@H]21
5. O=C(CN1CCN(c2cc3c(cc2F)c(=O)c(C(=O)O)cn3C2CC2)CC1)Nc1ccc(C(=O)/C=C/c2ccc(Cl)cc2)cc1
6. CC(Cc1nnc(SCC(=O)Nc2ccc(I)cc2)n1N)c1ccccc1 (configuration not stated)
7. OCc1c(-c2ccccc2)nc2sccn12

## Result
[11.9, 101, 33.4, 7.86, 94.2, 98.4, 105]

Take each entry in turn and give its growth.
1. Oc1ccc(Cl)cc1-c1cc(-c2ccc(Cl)cc2)n[nH]1
2. C=C1C(=O)O[C@H]2[C@H]1CC/C(COC(=O)NCCc1cccc(OC)c1)=C\CC[C@@]1(C)O[C@@H]21
3. COc1ccc(Cn2cc(COc3cc(/C=C/C(=O)c4cc(OC)c(OC)c(OC)c4)ccc3OC)nn2)cc1
4. Cc1cc(Nc2nc(C(=O)Nc3ccccc3)nc3ccccc23)n[nH]1

## Result
1: 61.5; 2: 42.6; 3: 51; 4: 63
